Recorded values, source patent US12441726B2.

Target: BRG-1 (Homo sapiens, UniProt P51532)
Sequence (P51532 whole entry): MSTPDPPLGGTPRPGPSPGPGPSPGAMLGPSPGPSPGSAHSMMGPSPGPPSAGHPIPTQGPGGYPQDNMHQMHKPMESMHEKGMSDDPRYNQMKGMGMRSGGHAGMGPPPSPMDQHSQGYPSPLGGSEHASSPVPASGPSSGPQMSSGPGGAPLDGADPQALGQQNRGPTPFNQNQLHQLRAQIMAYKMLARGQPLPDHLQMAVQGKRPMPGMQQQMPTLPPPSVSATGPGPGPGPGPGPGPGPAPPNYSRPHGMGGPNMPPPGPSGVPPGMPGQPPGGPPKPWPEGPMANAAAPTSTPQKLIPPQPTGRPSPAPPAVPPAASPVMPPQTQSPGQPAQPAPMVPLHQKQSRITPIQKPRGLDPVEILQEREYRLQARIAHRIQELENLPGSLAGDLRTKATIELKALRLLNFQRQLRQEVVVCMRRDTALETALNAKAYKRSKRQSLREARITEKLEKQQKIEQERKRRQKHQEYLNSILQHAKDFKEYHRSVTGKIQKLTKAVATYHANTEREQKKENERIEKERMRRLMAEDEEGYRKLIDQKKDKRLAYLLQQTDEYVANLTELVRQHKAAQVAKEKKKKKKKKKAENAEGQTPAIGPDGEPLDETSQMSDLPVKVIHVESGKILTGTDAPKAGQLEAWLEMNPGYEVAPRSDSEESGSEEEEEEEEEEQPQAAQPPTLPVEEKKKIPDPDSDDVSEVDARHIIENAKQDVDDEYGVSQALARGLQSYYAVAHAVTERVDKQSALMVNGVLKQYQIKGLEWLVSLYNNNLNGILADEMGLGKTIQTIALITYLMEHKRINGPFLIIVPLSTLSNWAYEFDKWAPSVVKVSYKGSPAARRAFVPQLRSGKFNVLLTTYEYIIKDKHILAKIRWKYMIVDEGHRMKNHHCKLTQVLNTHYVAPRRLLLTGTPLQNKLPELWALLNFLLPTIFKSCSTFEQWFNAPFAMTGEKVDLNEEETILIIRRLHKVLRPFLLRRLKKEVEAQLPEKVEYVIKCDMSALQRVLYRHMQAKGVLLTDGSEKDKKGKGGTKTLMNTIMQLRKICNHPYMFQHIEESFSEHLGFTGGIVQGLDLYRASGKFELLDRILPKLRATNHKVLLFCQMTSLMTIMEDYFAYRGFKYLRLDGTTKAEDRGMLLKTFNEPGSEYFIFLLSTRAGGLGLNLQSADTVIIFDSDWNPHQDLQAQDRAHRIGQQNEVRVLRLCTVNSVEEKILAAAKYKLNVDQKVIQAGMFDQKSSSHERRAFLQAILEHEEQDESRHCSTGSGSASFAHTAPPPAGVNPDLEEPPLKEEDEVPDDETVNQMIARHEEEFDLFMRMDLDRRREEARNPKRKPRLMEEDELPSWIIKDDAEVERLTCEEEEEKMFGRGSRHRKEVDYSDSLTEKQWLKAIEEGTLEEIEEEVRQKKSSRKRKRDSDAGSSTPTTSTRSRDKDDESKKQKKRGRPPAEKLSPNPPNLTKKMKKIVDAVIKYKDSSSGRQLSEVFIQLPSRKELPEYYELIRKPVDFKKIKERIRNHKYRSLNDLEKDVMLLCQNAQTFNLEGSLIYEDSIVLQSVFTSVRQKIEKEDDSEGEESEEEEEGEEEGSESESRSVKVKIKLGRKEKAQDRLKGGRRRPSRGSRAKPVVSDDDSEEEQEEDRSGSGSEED
Protocol summary: ATPase catalytic activity assay (ADP-Glo), BRG-1
Condition details: 1 h, read-out: BRG1 Max % Inhibition, ADP-Glo, 30 nM BRG-1, 400 μM ATP
Output schema: class label derived from Emax. Mapping: bottom (below 60%), middle (60% to below 90%), top (90% or more)

// known answers, use as guide
- Smiles representation: "C[C@@]1(C#N)COCc2ccc(C(=O)NCc3cc4cc(-c5cccc(N6CCC6)n5)ccc4cn3)cc21"
  Qualitative label: "top"
- Smiles representation: "C[C@@]1(C#N)COCc2ccc(C(=O)NCc3cc(OCC4CCOCC4)ccn3)cc21"
  Qualitative label: "bottom"
- Smiles representation: "C[C@@]1(CO)COCc2ccc(C(=O)NCc3cc4nc(-c5ccccc5)sc4cn3)cc21"
  Qualitative label: "bottom"
- Smiles representation: "C[C@@]1(C#N)COCc2ccc(C(=O)NCc3cc([C@H]4C[C@H](c5cccc(N6CCOCC6)n5)C4)ccn3)cc21"
  Qualitative label: "middle"
- Smiles representation: "CN(C)C(=O)c1cccc(-c2ccc3cnc(CNC(=O)c4ccc5c(c4)[C@](C)(C#N)COC5)cc3n2)n1"
  Qualitative label: "bottom"
- Smiles representation: "C[C@@]1(F)COCc2ccc(C(=O)NCc3cc4nc(-c5cccc(C(F)F)n5)ccc4nn3)cc21"
  Qualitative label: "middle"

Input line: Given COc1cnn(C)c1-c1ccc2cnc(CNC(=O)c3ccc4c(c3)[C@](C)(C#N)COC4)cc2n1 , name the class its Emax places it in.
Output line: middle

Input line: Given O=C(NCc1cc2nc(-c3cncc(C4CC4)n3)ccc2cn1)c1cnc2c(c1)[C@@](F)(C(F)F)CCO2 , name the class its Emax places it in.
Output line: bottom

Input line: Given Cn1ncc2cc(-c3ccc4cnc(CNC(=O)c5ccc6c(c5)[C@](C)(C#N)COC6)cc4n3)ccc21 , name the class its Emax places it in.
Output line: middle

Input line: Given C[C@@]1(C#N)COCc2ccc(C(=O)NCc3cc(N4CCc5ccccc5CC4)ccn3)cc21 , name the class its Emax places it in.
Output line: bottom

Input line: Given CO[C@H]1CCN(c2cncc(-c3ccc4cnc(CNC(=O)c5ccc6c(c5)[C@](C)(F)COC6)cc4c3)n2)C1 , name the class its Emax places it in.
Output line: top

Input line: Given CN1CCC(c2cccc(-c3ccc4cnc(CNC(=O)c5ccc6c(c5)[C@](C)(C#N)COC6)cc4n3)n2)CC1 , name the class its Emax places it in.
Output line: bottom

Input line: Given C[C@@]1(F)COCc2ccc(C(=O)NCc3cc4nc(-c5cccc(C6(O)COC6)n5)ccc4cn3)cc21 , name the class its Emax places it in.
Output line: middle

Input line: Given C[C@@]1(C#N)COCc2ccc(C(=O)NCc3cc4nc(-c5ccnc(N6CCC6)n5)sc4cn3)cc21 , name the class its Emax places it in.
Output line: middle

Input line: Given C[C@@]1(C#N)COCc2ccc(C(=O)NCc3cc(C#Cc4ccccc4)ccn3)cc21 , name the class its Emax places it in.
Output line: bottom

Input line: Given COc1nn(CC(F)F)cc1-c1ccc2cnc(CNC(=O)c3ccc4c(c3)[C@](C)(C#N)COC4)cc2n1 , name the class its Emax places it in.
Output line: middle

Input line: Given C[C@@]1(C#N)COCc2ccc(C(=O)NCc3cc4nc(-c5cn(C6COC6)nc5OC(F)F)ccc4cn3)cc21 , name the class its Emax places it in.
Output line: top

Input line: Given Cc1cnn(-c2ccc3cnc(CNC(=O)c4ccc5c(c4)[C@](C)(C#N)COC5)cc3n2)c1 , name the class its Emax places it in.
Output line: middle

Input line: Given COc1ccccc1-c1cnc2cnc(CNC(=O)c3ccc4c(c3)[C@](C)(F)COC4)cc2n1 , name the class its Emax places it in.
Output line: middle
